test system: Mycobacterium tuberculosis; assay: Antimycobacterial activity against Mycobacterium tuberculosis H37Rv after 7 days by REMA; assay type: functional; settings: 168 h
Entries and their measured MIC follow.
State the answer as a number, implicitly in µg/mL.

// known answers, use as guide
COC(=O)[C@H]1C[C@@H](S(=O)(=O)c2ccccc2)C(c2ccccc2)(c2ccccc2)N1c1nc(-c2ccccc2)c(C(=O)c2ccc(OC)cc2)s1 ... 3.91
CC[C@@H](CO)NCCN[C@@H](CC)CO [ETHAMBUTOL] ... 1.96
COC(=O)[C@H]1C[C@@H](S(=O)(=O)c2ccccc2)C(c2ccccc2)(c2ccccc2)N1c1nc(-c2ccccc2)c(C(=O)c2ccc(F)cc2)s1 ... 1.96
COC(=O)[C@H]1[C@@H](C(=O)OC)C(c2ccccc2)(c2ccccc2)N(c2nc(-c3ccccc3)c(C(=O)c3ccc(Br)cc3)s2)[C@H]1C(=O)OC ... 3.91
COC(=O)[C@H]1C[C@@H](C(=O)OC)C(c2ccccc2)(c2ccccc2)N1c1nc(-c2ccccc2)c(C(=O)c2ccc(OC)cc2)s1 ... 15.6
COC(=O)[C@H]1C[C@@H](S(=O)(=O)c2ccccc2)C(c2ccccc2)(c2ccccc2)N1c1nc(-c2ccccc2)c(C(=O)c2ccc(C#N)cc2)s1 ... 3.91
COC(=O)[C@H]1[C@@H](C(=O)OC)C(c2ccccc2)(c2ccccc2)N(c2nc(-c3ccccc3)c(C(=O)c3ccc(F)cc3)s2)[C@H]1C(=O)OC ... 15.6
COC(=O)[C@H]1C[C@@H](C(=O)OC)C(c2ccccc2)(c2ccccc2)N1c1nc(-c2ccccc2)c(C(=O)c2ccc(Br)cc2)s1 ... 7.81

Query: Please give the measured MIC for this compound: COC(=O)[C@H]1C[C@@H](S(=O)(=O)c2ccccc2)C(c2ccccc2)(c2ccccc2)N1c1nc(-c2ccccc2)c(C(=O)c2ccc(Br)cc2)s1
Response: 0.98

Query: Please give the measured MIC for this compound: NNC(=O)c1ccncc1 [ISONIAZID]
Response: 0.98

Query: Please give the measured MIC for this compound: COC(=O)[C@H]1[C@@H](C(=O)OC)C(c2ccccc2)(c2ccccc2)N(c2nc(-c3ccccc3)c(C(=O)c3ccc(OC)cc3)s2)[C@H]1C(=O)OC
Response: 15.6

* * *

Entries and their measured pKa follow.
assay: Acid dissociation constant, pKa for NH group of the compound in DMSO-water mixture at 25 +/- 0.1 degC by potentiometric method; assay type: physicochemical
// return just the number, without any unit appended

// known answers, use as guide
COC(=O)[C@H]1[C@@H](C(=O)OC)C(c2ccccc2)(c2ccccc2)N(c2nc(-c3ccccc3)c(C(=O)c3ccc(C#N)cc3)s2)[C@H]1C(=O)OC ... 3.53
COC(=O)[C@H]1C[C@@H](C(=O)OC)C(c2ccccc2)(c2ccccc2)N1c1nc(-c2ccccc2)c(C(=O)c2ccc(C#N)cc2)s1 ... 3.78

Consider the record given below.
Query: Please give the measured pKa for this compound: COC(=O)[C@H]1C[C@@H](C(=O)OC)C(c2ccccc2)(c2ccccc2)N1c1nc(-c2ccccc2)c(C(=O)c2ccc(Br)cc2)s1
Response: 3.11

* * *

test: Acid dissociation constant, pKa for NH group of the compound in DMSO-water mixture at 25 +/- 0.1 degC by potentiometric method; assay type: physicochemical
Entries and their measured pKa follow.
// return just the number, without any unit appended

COC(=O)[C@H]1[C@@H](C(=O)OC)C(c2ccccc2)(c2ccccc2)N(c2nc(-c3ccccc3)c(C(=O)c3ccc(Br)cc3)s2)[C@H]1C(=O)OC ... 3.27
COC(=O)[C@H]1C[C@@H](S(=O)(=O)c2ccccc2)C(c2ccccc2)(c2ccccc2)N1c1nc(-c2ccccc2)c(C(=O)c2ccc(Br)cc2)s1 ... 2.97
COC(=O)[C@H]1[C@@H](C(=O)OC)C(c2ccccc2)(c2ccccc2)N(c2nc(-c3ccccc3)c(C(=O)c3ccccc3)s2)[C@H]1C(=O)OC ... 3.35
COC(=O)[C@H]1C[C@@H](S(=O)(=O)c2ccccc2)C(c2ccccc2)(c2ccccc2)N1c1nc(-c2ccccc2)c(C(=O)c2ccccc2)s1 ... 3.26
COC(=O)[C@H]1C[C@@H](C(=O)OC)C(c2ccccc2)(c2ccccc2)N1c1nc(-c2ccccc2)c(C(=O)c2ccc(OC)cc2)s1 ... 2.46

Query: Please give the measured pKa for this compound: COC(=O)[C@H]1C[C@@H](S(=O)(=O)c2ccccc2)C(c2ccccc2)(c2ccccc2)N1c1nc(-c2ccccc2)c(C(=O)c2ccc(OC)cc2)s1
Response: 3.35

* * *

Entries and their measured pKa follow.
test: Acid dissociation constant, pKa for OH group of the compound in DMSO-water mixture at 25 +/- 0.1 degC by potentiometric method; type: physicochemical
// return just the number, without any unit appended

// known answers, use as guide
COC(=O)[C@H]1C[C@@H](C(=O)OC)C(c2ccccc2)(c2ccccc2)N1c1nc(-c2ccccc2)c(C(=O)c2ccc(F)cc2)s1 ... 9.69
COC(=O)[C@H]1C[C@@H](C(=O)OC)C(c2ccccc2)(c2ccccc2)N1c1nc(-c2ccccc2)c(C(=O)c2ccc(C#N)cc2)s1 ... 8.67

Consider the record given below.
Query: Please give the measured pKa for this compound: COC(=O)[C@H]1[C@@H](C(=O)OC)C(c2ccccc2)(c2ccccc2)N(c2nc(-c3ccccc3)c(C(=O)c3ccc(Br)cc3)s2)[C@H]1C(=O)OC
Response: 9.23

* * *

Entries and their measured pKa follow.
assay: Acid dissociation constant, pKa for SH group of the compound in DMSO-water mixture at 25 +/- 0.1 degC by potentiometric method; assay type: physicochemical
// return just the number, without any unit appended

// known answers, use as guide
COC(=O)[C@H]1C[C@@H](S(=O)(=O)c2ccccc2)C(c2ccccc2)(c2ccccc2)N1c1nc(-c2ccccc2)c(C(=O)c2ccc(Br)cc2)s1 ... 5.99
COC(=O)[C@H]1C[C@@H](S(=O)(=O)c2ccccc2)C(c2ccccc2)(c2ccccc2)N1c1nc(-c2ccccc2)c(C(=O)c2ccc(OC)cc2)s1 ... 6.01
COC(=O)[C@H]1C[C@@H](C(=O)OC)C(c2ccccc2)(c2ccccc2)N1c1nc(-c2ccccc2)c(C(=O)c2ccc(Br)cc2)s1 ... 5.99

Consider the record given below.
Query: Please give the measured pKa for this compound: COC(=O)[C@H]1[C@@H](C(=O)OC)C(c2ccccc2)(c2ccccc2)N(c2nc(-c3ccccc3)c(C(=O)c3ccc(Br)cc3)s2)[C@H]1C(=O)OC
Response: 6.02

* * *

Entries and their measured MIC follow.
tested on: Escherichia coli; assay: Antibacterial activity against Escherichia coli; assay type: functional

// known answers, use as guide
COC(=O)[C@H]1C[C@@H](S(=O)(=O)c2ccccc2)C(c2ccccc2)(c2ccccc2)N1c1nc(-c2ccccc2)c(C(=O)c2ccccc2)s1 ... 125 µg/mL
COC(=O)[C@H]1C[C@@H](S(=O)(=O)c2ccccc2)C(c2ccccc2)(c2ccccc2)N1c1nc(-c2ccccc2)c(C(=O)c2ccc(F)cc2)s1 ... 125 µg/mL
COC(=O)[C@H]1C[C@@H](C(=O)OC)C(c2ccccc2)(c2ccccc2)N1c1nc(-c2ccccc2)c(C(=O)c2ccc(F)cc2)s1 ... 125 µg/mL
COC(=O)[C@H]1[C@@H](C(=O)OC)C(c2ccccc2)(c2ccccc2)N(c2nc(-c3ccccc3)c(C(=O)c3ccccc3)s2)[C@H]1C(=O)OC ... 125 µg/mL
COC(=O)[C@H]1[C@@H](C(=O)OC)C(c2ccccc2)(c2ccccc2)N(c2nc(-c3ccccc3)c(C(=O)c3ccc(F)cc3)s2)[C@H]1C(=O)OC ... 125 µg/mL
COC(=O)[C@H]1C[C@@H](S(=O)(=O)c2ccccc2)C(c2ccccc2)(c2ccccc2)N1c1nc(-c2ccccc2)c(C(=O)c2ccc(C#N)cc2)s1 ... 125 µg/mL
COC(=O)[C@H]1C[C@@H](S(=O)(=O)c2ccccc2)C(c2ccccc2)(c2ccccc2)N1c1nc(-c2ccccc2)c(C(=O)c2ccc(Br)cc2)s1 ... 125 µg/mL

Consider the record given below.
Query: Please give the measured MIC for this compound: COC(=O)[C@H]1[C@@H](C(=O)OC)C(c2ccccc2)(c2ccccc2)N(c2nc(-c3ccccc3)c(C(=O)c3ccc(Br)cc3)s2)[C@H]1C(=O)OC
Response: 125 µg/mL

* * *

tested on: Mycobacterium tuberculosis; experiment: Antimycobacterial activity against Mycobacterium tuberculosis H37Rv after 7 days by REMA; format: functional; details: 168 h
Entries and their measured MIC follow.
State the answer as a number, implicitly in µg/mL.

// known answers, use as guide
COC(=O)[C@H]1C[C@@H](C(=O)OC)C(c2ccccc2)(c2ccccc2)N1c1nc(-c2ccccc2)c(C(=O)c2ccc(F)cc2)s1 ... 15.6
COC(=O)[C@H]1C[C@@H](C(=O)OC)C(c2ccccc2)(c2ccccc2)N1c1nc(-c2ccccc2)c(C(=O)c2ccc(C#N)cc2)s1 ... 15.6
COC(=O)[C@H]1[C@@H](C(=O)OC)C(c2ccccc2)(c2ccccc2)N(c2nc(-c3ccccc3)c(C(=O)c3ccccc3)s2)[C@H]1C(=O)OC ... 15.6
COC(=O)[C@H]1C[C@@H](C(=O)OC)C(c2ccccc2)(c2ccccc2)N1c1nc(-c2ccccc2)c(C(=O)c2ccccc2)s1 ... 15.6
COC(=O)[C@H]1C[C@@H](S(=O)(=O)c2ccccc2)C(c2ccccc2)(c2ccccc2)N1c1nc(-c2ccccc2)c(C(=O)c2ccccc2)s1 ... 3.91

Query: Please give the measured MIC for this compound: COC(=O)[C@H]1[C@@H](C(=O)OC)C(c2ccccc2)(c2ccccc2)N(c2nc(-c3ccccc3)c(C(=O)c3ccc(C#N)cc3)s2)[C@H]1C(=O)OC
Response: 7.81
